system: Saccharomyces cerevisiae BY4741 SeMeCo community; test: z-score of subpopulation abundance vs DMSO median, subpopulation auxotrophic for U; higher = larger share of this subpopulation than in DMSO controls; settings: 10 µM; 24 h; SM minimal medium; subpopulation (auxotrophy): U
Structures can show the parent of a compound that is named as a salt.
Give z-score of subpopulation abundance for every item shown.

Query: Provide one value: measured z-score of subpopulation abundance of CC1=C(C(=O)O)N2C(=O)[C@@H](NC(=O)[C@H](N)C3=CCC=CC3)[C@H]2SC1 [Cefradine]
Result: 0.07

Query: Hello, please tell me recorded z-score of subpopulation abundance for this one: CN(Cc1cnc2nc(N)nc(N)c2n1)c1ccc(C(=O)N[C@@H](CCC(=O)O)C(=O)O)cc1 [Methotrexate]
Result: -2.91

Query: Look up and state reported z-score of subpopulation abundance for O=C1OCCN1/N=C/c1ccc([N+](=O)[O-])o1 [Furazolidone]
Result: -7.17

Query: Return z-score of subpopulation abundance (reported value) for this compound: CC(=O)OCC[N+](C)(C)C [Acetylcholine iodide]
Result: 0.13

Query: Please list z-score of subpopulation abundance recorded for the compound CCOC(=O)C1=C[C@]2(CC)CCCN3CCc4c(n1c1ccccc41)[C@@H]32 [Vinpocetine]
Result: 0.11

Query: Give z-score of subpopulation abundance for COc1cccc2c1C(=O)c1c(O)c3c(c(O)c1C2=O)C[C@@](O)(C(C)=O)C[C@@H]3O[C@H]1C[C@H](N)[C@H](O)[C@H](C)O1 [Daunorubicin HCl]
Result: 4.14

Query: Consider the compound CN1CCC[C@@H]1Cc1c[nH]c2ccc(CCS(=O)(=O)c3ccccc3)cc12 [Eletriptan HBr] and give its recorded z-score of subpopulation abundance.
Result: -0.94

Query: Supply measured z-score of subpopulation abundance of C#C[C@]1(O)CC[C@H]2[C@@H]3CCC4=CC(=O)CC[C@@H]4[C@H]3CC[C@@]21CC [Levonorgestrel] in your reply.
Result: 0.3

Query: Retrieve z-score of subpopulation abundance measured for CCn1cc(C(=O)O)c(=O)c2cnc(N3CCNCC3)nc21 [Pipemidic acid] and print it.
Result: 0.77

Query: Answer with reported z-score of subpopulation abundance of CN1[C@@H]2CC[C@H]1C[C@@H](OC(=O)c1c[nH]c3ccccc13)C2 [Tropisetron HCl]
Result: -0.06

Query: Return z-score of subpopulation abundance for the following compound: CN(C)[C@@H](CCOc1cccc2ccccc12)c1ccccc1 [Dapoxetine HCl]
Result: -0.41

Query: Item CN(C)CCn1nnnc1SCC1=C(C(=O)O)N2C(=O)[C@@H](NC(=O)Cc3csc(N)n3)[C@H]2SC1 [Cefotiam hydrochloride] : provide z-score of subpopulation abundance
Result: -0.08

Query: Indicate its recorded z-score of subpopulation abundance; the compound in question is CC[C@@]1(O)C(=O)OCc2c1cc1n(c2=O)Cc2cc3cc(O)ccc3nc2-1 [(S)-10-Hydroxycamptothecin]
Result: -1.66

Query: Determine its reported z-score of subpopulation abundance: Cc1ccc(-c2cc(C(F)(F)F)nn2-c2ccc(S(N)(=O)=O)cc2)cc1 [Celecoxib]
Result: -0.79

Query: Supply recorded z-score of subpopulation abundance for CO/N=C(\C(=O)N[C@@H]1C(=O)N2C(C(=O)O)=C(CSC(=O)c3ccco3)CS[C@H]12)c1csc(N)n1 [Ceftiofur] here.
Result: 0.57

Query: // Input: CC(C(=O)O)c1ccc(C(=O)c2cccs2)cc1 (stereo not drawn) [Suprofen] . Output its z-score of subpopulation abundance only.
Result: -0.1

Query: Find the measured z-score of subpopulation abundance of CO[C@@H]1[C@@H](O[C@@H]2O[C@H](C)[C@@H](O[C@H]3C[C@@](C)(O)[C@@H](O)[C@H](C)O3)[C@H](N(C)C)[C@H]2O)[C@@H](CC=O)C[C@@H](C)[C@@H](O[C@H]2CC[C@H](N(C)C)[C@@H](C)O2)/C=C/C=C/C[C@@H](C)OC(=O)C[C@H]1OC(C)=O [Acetylspiramycin (ASPM)] and report it.
Result: -1.32

Query: Quick one: give measured z-score of subpopulation abundance for CC[C@H]1OC(=O)[C@H](C)[C@@H](O[C@H]2C[C@@](C)(OC)[C@@H](O)[C@H](C)O2)[C@H](C)[C@@H](O[C@@H]2O[C@H](C)C[C@H](N(C)C)[C@H]2O)[C@](C)(O)C[C@@H](C)C(=O)[C@H](C)[C@@H](O)[C@]1(C)O [Erythromycin thiocyanate]
Result: 0.41

Query: Provide only the value of recorded z-score of subpopulation abundance for COC(=O)C1=C(C)NC(C)=C(C(=O)OCCN2CCN(C(c3ccccc3)c3ccccc3)CC2)C1c1cccc([N+](=O)[O-])c1 (stereo not drawn) [Manidipine 2HCl]
Result: -1.31

Query: Return reported z-score of subpopulation abundance. Input compound: COc1ccc(NS(=O)(=O)c2ccc(N)cc2)nn1 [Sulfamethoxypyridazine]
Result: 0.12

Query: Could you please provide reported z-score of subpopulation abundance for NC(=O)N/N=C/c1ccc([N+](=O)[O-])o1 [Nitrofural] ? Thanks!
Result: -0.14

Query: Look up and report measured z-score of subpopulation abundance for this entry: C=CCc1ccc(O)c(-c2ccc(O)c(CC=C)c2)c1 [Honokiol]
Result: -1.32

Query: Kindly indicate its recorded z-score of subpopulation abundance. Item: CC1(C)S[C@@H]2[C@H](NC(=O)COc3ccccc3)C(=O)N2[C@H]1C(=O)O [Penicillin V potassium salt]
Result: 0.95

Query: # return recorded z-score of subpopulation abundance for input CNCC[C@@H](Oc1ccccc1C)c1ccccc1 [Atomoxetine HCl]
Result: 0.03

Query: Please list z-score of subpopulation abundance recorded for the compound CC1=C(C(=O)O)N2C(=O)[C@@H](NC(=O)[C@H](N)c3ccc(O)cc3)[C@H]2SC1 [Cefadroxil hydrate]
Result: -0.62

Query: Give reported z-score of subpopulation abundance value for CC[C@H]1OC(=O)C[C@@H](O)[C@H](C)[C@@H](O[C@@H]2O[C@H](C)[C@@H](O)[C@H](N(C)C)[C@H]2O)[C@@H](CCN2C[C@H](C)C[C@H](C)C2)C[C@@H](C)C(=O)/C=C/C(C)=C/[C@@H]1CO[C@@H]1O[C@H](C)[C@@H](O)[C@@H](OC)[C@H]1OC [Tilmicosin phosphate]
Result: -0.3

Query: Tell me z-score of subpopulation abundance reported for O=C1CN(/N=C/c2ccc([N+](=O)[O-])o2)C(=O)N1 [Nitrofurantoin]
Result: -0.25

Query: Supply recorded z-score of subpopulation abundance for CCn1cc(C(=O)O)c(=O)c2ccc(C)nc21 [Nalidixic acid] here.
Result: -0.51

Just for reference, the supplement of paper PMC8975748 is where these values come from.
